target-or-test-system: Spike glycoprotein (Severe acute respiratory syndrome coronavirus 2, UniProt P0DTC2)
experiment: Inhibition of SARS-COV-2 spike protein
reported-endpoint: EC50 (µM)

> print(dat)
                                   compound                     target.or.test.system  quantitative.readout
1  CCCCCc1cc(O)c2c(c1)OC1(C)CCC3C1C2C3(C)C (racemic) [CANNABICYCLOL]  Spike glycoprotein (Severe acute respiratory syndrome coronavirus 2, UniProt P0DTC2)                  10.8
